Recorded values, source patent US11945836B2.

Record form. Attribute: pIC50. Fill in for each entry.
- MEASURED ON: rat brain cortical membranes ([35S]-TBPS binding)
- ASSAY EXPLANATION: Steroid inhibition of [35S]-TBPS binding (radioligand displacement)
- RUN PARAMETERS: 3 nM [35S]-TBPS, in the presence of 5 μM GABA
pIC50: −log10 of the molar value.

Examples from the recorded data:
QUERY SMILES: COc1ccc(C(=O)[C@H]2CC[C@H]3[C@@H]4CC[C@@H]5C[C@](C)(O)CC[C@]5(C)[C@H]4CC[C@]23C)c(C)c1
pIC50: < 7.00
//
QUERY SMILES: CSc1ccc(C(=O)[C@H]2CC[C@H]3[C@@H]4CC[C@@H]5C[C@](C)(O)CC[C@]5(C)[C@H]4CC[C@]23C)cc1
pIC50: 7.30 to 7.70
//
QUERY SMILES: CN(C)c1ccc(C(=O)[C@H]2CC[C@H]3[C@@H]4CC[C@H]5C[C@](C)(O)CC[C@]5(C)[C@H]4CC[C@]23C)cc1
pIC50: < 7.00
//
QUERY SMILES: Cc1cccc(C(=O)[C@H]2CC[C@H]3[C@@H]4CC[C@@H]5C[C@](C)(O)CC[C@@H]5[C@H]4CC[C@]23C)c1
pIC50: 7.30 to 7.70
//
QUERY SMILES: C[C@@]1(O)CC[C@H]2[C@H](CC[C@@H]3[C@@H]2CC[C@]2(C)[C@@H](C(=O)c4ccc(OC(F)(F)F)cc4)CC[C@@H]32)C1
pIC50: > 7.70

Proceeding to the next molecule to report its pIC50.
Task: Give the measured pIC50 for Cc1ccc(C(=O)[C@H]2CC[C@H]3[C@@H]4CC[C@@H]5C[C@](C)(O)CC[C@]5(C)[C@H]4CC[C@]23C)cc1C
Result: 7.00 to 7.30

###

- MEASURED ON: rat brain cortical membranes ([35S]-TBPS binding)
- ASSAY EXPLANATION: Steroid inhibition of [35S]-TBPS binding (radioligand displacement)
- RUN PARAMETERS: 3 nM [35S]-TBPS, in the presence of 5 μM GABA
QUANTITY KIND: IC50

For every listed record, write down its IC50.
1. CSc1ccc(C(=O)[C@H]2CC[C@H]3[C@@H]4CC[C@@H]5C[C@](C)(O)CC[C@@H]5[C@H]4CC[C@]23C)cc1
2. COc1ccc(C(=O)[C@H]2CC[C@H]3[C@@H]4CC[C@H]5C[C@](C)(O)CC[C@]5(C)[C@H]4CC[C@]23C)c(C)c1
3. Cc1cc(C(=O)[C@H]2CC[C@H]3[C@@H]4CC[C@@H]5C[C@](C)(O)CC[C@]5(C)[C@H]4CC[C@]23C)ccc1F
4. Cc1cc(C(=O)[C@H]2CC[C@H]3[C@@H]4CC[C@H]5C[C@](C)(O)CC[C@]5(C)[C@H]4CC[C@]23C)ccc1F
5. Cn1ccc(C(=O)[C@H]2CC[C@H]3[C@@H]4CC[C@H]5C[C@](C)(O)CC[C@]5(C)[C@H]4CC[C@]23C)n1
6. COc1ccccc1C(=O)[C@H]1CC[C@H]2[C@@H]3CC[C@H]4C[C@](C)(O)CC[C@]4(C)[C@H]3CC[C@]12C
7. Cc1cccc(C(=O)[C@H]2CC[C@H]3[C@@H]4CC[C@@H]5C[C@](C)(O)CC[C@]5(C)[C@H]4CC[C@]23C)c1
8. Cc1ccc(C(=O)[C@H]2CC[C@H]3[C@@H]4CC[C@@H]5C[C@](C)(O)CC[C@]5(C)[C@H]4CC[C@]23C)cc1

Result:
1. 20 to 50 nM
2. > 100 nM
3. 20 to 50 nM
4. 50 to 100 nM
5. > 100 nM
6. > 100 nM
7. 50 to 100 nM
8. 50 to 100 nM

###

- MEASURED ON: rat brain cortical membranes ([35S]-TBPS binding)
- ASSAY EXPLANATION: Steroid inhibition of [35S]-TBPS binding (radioligand displacement)
- RUN PARAMETERS: 3 nM [35S]-TBPS, in the presence of 5 μM GABA
Record form. Attribute: IC50. Fill in for each entry.

Examples from the recorded data:
QUERY SMILES: Cc1cc(C(=O)[C@H]2CC[C@H]3[C@@H]4CC[C@@H]5C[C@](C)(O)CC[C@@H]5[C@H]4CC[C@]23C)ccc1F
RESULT: 20 to 50 nM

QUERY SMILES: C[C@@]1(O)CC[C@@]2(C)[C@H](CC[C@@H]3[C@@H]2CC[C@]2(C)[C@@H](C(=O)c4ccc(F)cc4)CC[C@@H]32)C1
RESULT: 50 to 100 nM

For every listed record, write down its IC50.
1. C[C@@]1(O)CC[C@@]2(C)[C@@H](CC[C@@H]3[C@@H]2CC[C@]2(C)[C@@H](C(=O)c4ccc5c(c4)OCO5)CC[C@@H]32)C1
2. COc1ccc2cc(C(=O)[C@H]3CC[C@H]4[C@@H]5CC[C@H]6C[C@](C)(O)CC[C@]6(C)[C@H]5CC[C@]34C)ccc2c1
3. C[C@@]1(O)CC[C@H]2[C@H](CC[C@@H]3[C@@H]2CC[C@]2(C)[C@@H](C(=O)c4nccs4)CC[C@@H]32)C1
4. COC[C@]12CC[C@@](C)(O)C[C@@H]1CC[C@H]1[C@@H]3CC[C@H](C(=O)c4ccc(N(C)C)cc4)[C@@]3(C)CC[C@@H]12

Result:
["> 100 nM", "> 100 nM", "> 100 nM", "> 100 nM"]

###

- MEASURED ON: rat brain cortical membranes ([35S]-TBPS binding)
- ASSAY EXPLANATION: Steroid inhibition of [35S]-TBPS binding (radioligand displacement)
- RUN PARAMETERS: 3 nM [35S]-TBPS, in the presence of 5 μM GABA
QUANTITY KIND: IC50

COMPOUND: C[C@@]1(O)CC[C@H]2[C@H](CC[C@@H]3[C@@H]2CC[C@]2(C)[C@@H](C(=O)c4cc5ccccc5o4)CC[C@@H]32)C1 [Compound 5]
MEASURED ON: rat brain cortical membranes ([35S]-TBPS binding)
IC50: 20 to 50 nM
--
COMPOUND: Cc1ccc(C(=O)[C@H]2CC[C@H]3[C@@H]4CC[C@@H]5C[C@](C)(O)CC[C@@H]5[C@H]4CC[C@]23C)cc1C [Compound 20]
MEASURED ON: rat brain cortical membranes ([35S]-TBPS binding)
IC50: 50 to 100 nM

For every listed record, write down its IC50.
1. COc1cccc(C(=O)[C@H]2CC[C@H]3[C@@H]4CC[C@@H]5C[C@](C)(O)CC[C@]5(C)[C@H]4CC[C@]23C)c1 [Compound 63]
2. C[C@@]1(O)CC[C@H]2[C@H](CC[C@@H]3[C@@H]2CC[C@]2(C)[C@@H](C(=O)c4csc5ccccc45)CC[C@@H]32)C1 [Compound 11]
3. C[C@@]1(O)CC[C@@]2(C)[C@@H](CC[C@@H]3[C@@H]2CC[C@]2(C)[C@@H](C(=O)c4ccccc4-c4ccccc4)CC[C@@H]32)C1 [Compound 127]
4. C[C@@]1(O)CC[C@@]2(C)[C@H](CC[C@@H]3[C@@H]2CC[C@]2(C)[C@@H](C(=O)c4ccc5c(c4)OCO5)CC[C@@H]32)C1 [Compound 24]

Result:
1. 50 to 100 nM
2. 20 to 50 nM
3. > 100 nM
4. < 20 nM

###

Record form. Attribute: IC50. Fill in for each entry.
- MEASURED ON: rat brain cortical membranes ([35S]-TBPS binding)
- ASSAY EXPLANATION: Steroid inhibition of [35S]-TBPS binding (radioligand displacement)
- RUN PARAMETERS: 3 nM [35S]-TBPS, in the presence of 5 μM GABA

Examples from the recorded data:
COMPOUND: Cc1ccc(C(=O)[C@H]2CC[C@H]3[C@@H]4CC[C@H]5C[C@](C)(O)CC[C@]5(C)[C@H]4CC[C@]23C)cc1C [Compound 39]
IC50: 50 to 100 nM

COMPOUND: Cc1ccc(C(=O)[C@H]2CC[C@H]3[C@@H]4CC[C@@H]5C[C@](C)(O)CC[C@@H]5[C@H]4CC[C@]23C)cc1 [Compound 86]
IC50: 20 to 50 nM

COMPOUND: COC[C@]12CC[C@@](C)(O)C[C@@H]1CC[C@H]1[C@@H]3CC[C@H](C(=O)c4cc(C)cc(C)c4)[C@@]3(C)CC[C@@H]12 [Compound 93]
IC50: 50 to 100 nM

COMPOUND: C[C@@]1(O)CC[C@H]2[C@H](CC[C@@H]3[C@@H]2CC[C@]2(C)[C@@H](C(=O)c4cccnc4)CC[C@@H]32)C1 [Compound 70]
IC50: 50 to 100 nM

COMPOUND: COC[C@]12CC[C@@](C)(O)C[C@@H]1CC[C@H]1[C@@H]3CC[C@H](C(=O)c4cccc(OC)c4)[C@@]3(C)CC[C@@H]12 [Compound 106]
IC50: > 100 nM

COMPOUND: CN(C)c1ccc(C(=O)[C@H]2CC[C@H]3[C@@H]4CC[C@H]5C[C@](C)(O)CC[C@@H]5[C@H]4CC[C@]23C)cc1 [Compound 111]
IC50: > 100 nM

COMPOUND: C[C@@]1(O)CC[C@H]2[C@H](CC[C@@H]3[C@@H]2CC[C@]2(C)[C@@H](C(=O)c4ccc(-c5ccccc5)cc4)CC[C@@H]32)C1 [Compound 44]
IC50: 50 to 100 nM

COMPOUND: COC[C@]12CC[C@@](C)(O)C[C@@H]1CC[C@H]1[C@@H]3CC[C@H](C(=O)c4ccc(OC)cc4C)[C@@]3(C)CC[C@@H]12 [Compound 96]
IC50: > 100 nM

COMPOUND: Cc1cc(C)cc(C(=O)[C@H]2CC[C@H]3[C@@H]4CC[C@H]5C[C@](C)(O)CC[C@]5(C)[C@H]4CC[C@]23C)c1 [Compound 135]
IC50: > 100 nM

COMPOUND: C[C@@]1(O)CC[C@@]2(C)[C@@H](CC[C@@H]3[C@@H]2CC[C@]2(C)[C@@H](C(=O)c4cc(F)cc(F)c4)CC[C@@H]32)C1 [Compound 37]
IC50: 50 to 100 nM

For every listed record, write down its IC50.
1. COC[C@]12CC[C@@](C)(O)C[C@@H]1CC[C@H]1[C@@H]3CC[C@H](C(=O)c4cccc(C)c4)[C@@]3(C)CC[C@@H]12 [Compound 103]
2. COc1cc(OC)cc(C(=O)[C@H]2CC[C@H]3[C@@H]4CC[C@H]5C[C@](C)(O)CC[C@]5(C)[C@H]4CC[C@]23C)c1 [Compound 13]

Result:
1. > 100 nM
2. > 100 nM
